- test_target: T1, Human full length B7-H3 (human, UniProt Q5ZPR3 29-534)
- T1 sequence: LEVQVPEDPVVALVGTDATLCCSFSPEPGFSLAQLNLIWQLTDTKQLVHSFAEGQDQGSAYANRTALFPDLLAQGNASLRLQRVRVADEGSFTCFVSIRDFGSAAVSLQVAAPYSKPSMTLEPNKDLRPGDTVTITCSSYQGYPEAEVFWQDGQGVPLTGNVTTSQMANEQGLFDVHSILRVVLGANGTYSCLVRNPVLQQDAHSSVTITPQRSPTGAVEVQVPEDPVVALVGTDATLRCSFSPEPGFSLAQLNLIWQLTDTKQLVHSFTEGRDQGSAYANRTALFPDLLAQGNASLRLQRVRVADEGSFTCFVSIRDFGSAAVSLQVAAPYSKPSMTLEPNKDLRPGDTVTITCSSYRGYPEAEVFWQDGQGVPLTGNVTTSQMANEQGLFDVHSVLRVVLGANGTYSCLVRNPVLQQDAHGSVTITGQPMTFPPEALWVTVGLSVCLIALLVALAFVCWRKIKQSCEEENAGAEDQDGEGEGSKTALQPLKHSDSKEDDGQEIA
- protocol_notes: cell-based or functional assay
measure: EC50 nM H1650 (in vitro tumor cell cytotoxicity) (nM)
One number for each entry, in nM.

Each binder below has a reported value. Please supply its EC50 nM H1650 (in vitro tumor cell cytotoxicity).
1. huAb3v2.5-LB (antibody, human IgG1, kappa, L234A L235A, V domains shown, synthon LB on interchain Cys) VH: EVQLVQSGAEVKKPGSSVKVSCKASGYTFSSYWMHWVRQAPGQGLEWIGLIHPESGSTNYNEMFKNRATLTVDRSTSTAYMELSSLRSEDTAVYYCAGGGRLYFDYWGQGTTVTVSS VL: DIVMTQSPLSLPVTPGEPASISCRSSQSLVHSNRDTYLRWYLQKPGQSPQLLIYKVSNRFSGVPDRFSGSGSGTDFTLKISRVEAEDVGVYYCSQSTHVPYTFGGGTKVEIKR
2. huAb3v2.5-WD (antibody, human IgG1, kappa, L234A L235A, V domains shown, synthon WD on interchain Cys) VH: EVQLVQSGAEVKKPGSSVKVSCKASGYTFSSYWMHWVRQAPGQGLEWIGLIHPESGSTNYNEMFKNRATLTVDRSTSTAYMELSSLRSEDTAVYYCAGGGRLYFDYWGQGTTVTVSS VL: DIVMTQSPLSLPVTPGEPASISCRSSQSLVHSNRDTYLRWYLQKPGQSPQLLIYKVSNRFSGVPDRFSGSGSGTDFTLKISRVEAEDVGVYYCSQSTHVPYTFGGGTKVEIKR
3. huAb3v2.5-CZ (antibody, human IgG1, kappa, L234A L235A, V domains shown, synthon CZ on interchain Cys) VH: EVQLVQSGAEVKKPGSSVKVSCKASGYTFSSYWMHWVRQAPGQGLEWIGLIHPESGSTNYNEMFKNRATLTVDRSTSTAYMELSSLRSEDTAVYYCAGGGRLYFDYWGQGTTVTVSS VL: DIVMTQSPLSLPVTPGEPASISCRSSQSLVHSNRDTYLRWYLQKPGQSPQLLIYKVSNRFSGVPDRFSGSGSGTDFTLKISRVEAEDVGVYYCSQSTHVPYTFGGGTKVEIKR

1. 2.59
2. 0.83
3. 0.4

Taken from patent US20200002421A1.
